- target system: Sodium-dependent dopamine transporter (Homo sapiens)
- Sequence (Q01959 whole entry): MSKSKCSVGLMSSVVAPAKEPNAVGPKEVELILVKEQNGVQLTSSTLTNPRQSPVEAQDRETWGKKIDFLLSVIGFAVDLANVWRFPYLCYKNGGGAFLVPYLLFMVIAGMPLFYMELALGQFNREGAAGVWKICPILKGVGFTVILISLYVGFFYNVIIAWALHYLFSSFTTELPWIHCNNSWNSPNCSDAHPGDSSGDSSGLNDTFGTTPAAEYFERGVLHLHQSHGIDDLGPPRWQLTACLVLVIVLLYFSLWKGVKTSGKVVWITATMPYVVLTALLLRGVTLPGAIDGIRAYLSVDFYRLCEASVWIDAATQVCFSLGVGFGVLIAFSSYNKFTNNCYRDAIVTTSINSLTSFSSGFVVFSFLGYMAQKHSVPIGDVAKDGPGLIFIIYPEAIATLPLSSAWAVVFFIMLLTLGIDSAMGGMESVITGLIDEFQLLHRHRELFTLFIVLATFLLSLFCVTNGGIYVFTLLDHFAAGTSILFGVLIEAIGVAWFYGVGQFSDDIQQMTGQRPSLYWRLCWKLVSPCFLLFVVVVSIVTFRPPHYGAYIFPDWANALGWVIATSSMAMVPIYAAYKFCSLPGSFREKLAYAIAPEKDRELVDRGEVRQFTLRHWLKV
- protocol summary: Inhibition of [3H]dopamine reuptake in HEK293 cells expressing human dopamine transporter
# pIC50 per entry
Just the number, please; pIC50 means minus log10 of the concentration in mol/L.

Request: Tell me the measured pIC50 of `c1ccc(CCCNC2CCN(CCOC(c3ccccc3)c3ccccc3)CC2)cc1` , please.
Response: 6.41

Request: Tell me the measured pIC50 of `c1ccc(CN2CCC(NCCOC(c3ccccc3)c3ccccc3)CC2)cc1` , please.
Response: 6.57

Request: Tell me the measured pIC50 of c1ccc(CCCNCC2CCCN(CCOC(c3ccccc3)c3ccccc3)C2)cc1 (stereo not given) , please.
Response: 6.98

More entries:
Request: Tell me the measured pIC50 of `CN(CCOC(c1ccccc1)c1ccccc1)C1CCN(CCCc2ccccc2)CC1` , please.
Response: 6.48

Request: Tell me the measured pIC50 of CN(CCc1ccc(F)cc1)CC1CCCN(CCOC(c2ccccc2)c2ccccc2)C1 (stereo not given) , please.
Response: 5.90

Request: Tell me the measured pIC50 of `CN(CCCc1ccccc1)C1CCN(CCOC(c2ccccc2)c2ccccc2)CC1` , please.
Response: 6.68

The reported measurements were obtained from ChEMBL document CHEMBL1133662.
